All values here come from patent US20210230159A1.

# Procedure summary: Hydrogen peroxide (H2O2) inhibition assay (fluorescence, DCF/horseradish peroxidase)
# Assay type: biochemical
# Applied conditions: ascorbic acid as reducing substrate; test compound 0.4 μM; lower values = greater inhibition of H2O2
Attribute measured: Fe-ASC % (cf. 0.4 uM Fe/Asc; cf. CQ, CQ = 100%) (% ASC)

| Compound | Measured |
| --- | --- |
| Cc1ccc(O)c2nc(CN(C)Cc3ccc(F)cc3)cc(=O)n12 [Compound 1500] | 171 |
| O=c1cc(CNCc2ccc(F)c(F)c2)nc2c(O)cccn12 [Compound 1459] | 110 |
| Cc1ccc(O)c2nc(CN3CCC(C)CC3)cc(=O)n12 [Compound 1508] | 148 |
| O=c1cc(CNCCN2CCCC2)nc2c(O)cccn12 [Compound 1417] | 29 |
| CN(C)Cc1cnc2c(O)cccn2c1=O [Compound 1424] | 48 |
| Cc1ccc(O)c2nc(CN(C)Cc3ccccc3F)cc(=O)n12 [Compound 1527] | 133 |
| O=c1cc(CNCCCN2CCOCC2)nc2c(O)cccn12 [Compound 1412] | 29 |
| O=C(NCc1cccnc1)c1cnc2c(O)cccn2c1=O [Compound 1446] | 218 |
| Cc1ccc(CNCc2cc(=O)n3cccc(O)c3n2)cc1 [Compound 1478] | 198 |
| O=C(NCc1ccc(C(F)(F)F)cc1)c1cnc2c(O)cccn2c1=O [Compound 1453] | 79 |
| CCCCCCNC(=O)c1cnc2c(O)cccn2c1=O [Compound 1440] | 66 |
| CN(Cc1cc(=O)n2cccc(O)c2n1)C1CCCCC1 [Compound 1521] | 123 |
| O=C(NCc1ccccn1)c1cnc2c(O)cccn2c1=O [Compound 1447] | 112 |
| CCCCCCCCNCc1cc(=O)n2cccc(O)c2n1 [Compound 1410] | 62 |
| CN(CCc1ccccn1)Cc1cc(=O)n2cccc(O)c2n1 [Compound 1476] | 122 |
| Cc1ccc(O)c2nc(CN(C)Cc3cccc(Cl)c3)cc(=O)n12 [Compound 1519] | 100 |
| O=c1cc(CNCC2CCCCC2)nc2c(O)cccn12 [Compound 1458] | 137 |
| O=c1cc(CN2CCCCC2)nc2c(O)cccn12 [Compound 1403] | 49 |
| CNC(=O)c1cnc2c(O)cccn2c1=O [Compound 1445] | 176 |
| CCN(CC)Cc1cc(=O)n2c(C)ccc(O)c2n1 [Compound 1490] | 178 |
| CCNCc1cc(=O)n2cccc(O)c2n1 [Compound 1400] | 32 |
| CCCCCCCCNC(=O)c1cnc2c(O)cccn2c1=O [Compound 1394] | 96 |
| O=C(NCc1ccc(F)c(F)c1)c1cnc2c(O)cccn2c1=O [Compound 1454] | 65 |
| CN(Cc1cccc(Cl)c1)Cc1cc(=O)n2cccc(O)c2n1 [Compound 1518] | 84 |
| O=c1cc(CNCCc2ccccn2)nc2c(O)cccn12 [Compound 1415] | 34 |
| COc1ccc(CNCc2cc(=O)n3cccc(O)c3n2)cc1OC [Compound 1463] | 158 |
| CCCNC(=O)c1cnc2c(O)cccn2c1=O [Compound 1423] | 45 |
| Cc1ccc(O)c2nc(CN3CCCCC3)cc(=O)n12 [Compound 1471] | 125 |
| Cc1ccc(O)c2nc(CNCC3CCCCC3)cc(=O)n12 [Compound 1503] | 204 |
| CCCCCNC(=O)c1cnc2c(O)cccn2c1=O [Compound 1422] | 63 |
| COCc1cnc2c(O)cccn2c1=O [Compound 1398] | 39 |
| O=c1cc(CNc2ccc(F)cc2)nc2c(O)cccn12 [Compound 1451] | 136 |
| CCCCCNCc1cc(=O)n2cccc(O)c2n1 [Compound 1413] | 42 |
| CCNC(=O)c1cnc2c(O)cccn2c1=O [Compound 1433] | 152 |
| Cc1ccc(O)c2nc(CNC3CCCCC3)cc(=O)n12 [Compound 1468] | 169 |

====

# Procedure summary: Hydrogen peroxide (H2O2) inhibition assay (fluorescence, DCF/horseradish peroxidase)
# Format: biochemical
# Applied conditions: dopamine as reducing substrate; test compound 0.4 μM; lower values = greater inhibition of H2O2
Kind request: treat 50% as inclusive, so Fe-DA % (cf. 0.4 uM Fe/DA; cf. CQ, CQ = 100%) at 50% or higher is yes (1), anything lower is no (0).

| Compound | Label |
| --- | --- |
| COc1ccc(CNCc2cc(=O)n3cccc(O)c3n2)cc1OC | yes (1) |
| O=C(NCc1ccncc1)c1cnc2c(O)cccn2c1=O | yes (1) |
| Cc1ccc(O)c2nc(CNCC3CCCCC3)cc(=O)n12 | no (0) |
| O=c1cc(CNC2CCCCC2)nc2c(O)cccn12 | yes (1) |
| Cc1ccc(O)c2nc(CN(C)Cc3cccc(Cl)c3)cc(=O)n12 | no (0) |
| CN(Cc1cccc(F)c1)Cc1cc(=O)n2cccc(O)c2n1 | yes (1) |
| O=c1cc(CNCc2ccc(OC(F)(F)F)cc2)nc2c(O)cccn12 | no (0) |
| O=C(NCC1CC1)c1cnc2c(O)cccn2c1=O | yes (1) |
| O=C(NCc1ccc(F)c(F)c1)c1cnc2c(O)cccn2c1=O | no (0) |
| CNC(=O)c1cnc2c(O)cccn2c1=O | no (0) |
| O=c1cc(CNCc2ccc(F)c(F)c2)nc2c(O)cccn12 | no (0) |
| Cc1ccc(O)c2nc(CN3CCN(Cc4ccccc4F)CC3)cc(=O)n12 | no (0) |
| O=C(NCc1cccnc1)c1cnc2c(O)cccn2c1=O | yes (1) |
| CN(Cc1ccc(F)cc1)Cc1cc(=O)n2cccc(O)c2n1 | no (0) |
| CCNC(=O)c1cnc2c(O)cccn2c1=O | yes (1) |
| O=C(NCc1ccc(Cl)cc1)c1cnc2c(O)cccn2c1=O | yes (1) |
| CCCNCc1cc(=O)n2c(C)ccc(O)c2n1 | no (0) |
| Cc1ccc(O)c2nc(CN(C)Cc3cccc(F)c3)cc(=O)n12 | no (0) |
| CC1CCN(Cc2cc(=O)n3cccc(O)c3n2)CC1 | no (0) |
| O=C(NCCc1ccccn1)c1cnc2c(O)cccn2c1=O | yes (1) |
| O=C(NCC1CCCCC1)c1cnc2c(O)cccn2c1=O | yes (1) |
| O=C(NCc1ccc(F)cc1F)c1cnc2c(O)cccn2c1=O | yes (1) |
| CCN(CC)Cc1cc(=O)n2c(C)ccc(O)c2n1 | yes (1) |
| COc1ccc(CNCc2cc(=O)n3cccc(O)c3n2)cc1 | yes (1) |
| O=c1cc(CNCc2ccc(C(F)(F)F)cc2)nc2c(O)cccn12 | no (0) |
| O=c1cc(CNc2cccnc2)nc2c(O)cccn12 | yes (1) |
| Cc1ccc(O)c2nc(CNCc3ccc(F)cc3)cc(=O)n12 | no (0) |
| CCN(CC)Cc1cc(=O)n2cccc(O)c2n1 | yes (1) |
| O=C(NC1CCCC1)c1cnc2c(O)cccn2c1=O | yes (1) |
| O=c1cc(CNc2ccc(F)cc2F)nc2c(O)cccn12 | yes (1) |
| O=c1cc(CNC2CCCC2)nc2c(O)cccn12 | yes (1) |
| O=c1cc(CNc2ccc(F)cc2)nc2c(O)cccn12 | yes (1) |
| CN(CCc1ccccn1)Cc1cc(=O)n2cccc(O)c2n1 | no (0) |
| CCCCCCNCc1cc(=O)n2cccc(O)c2n1 | no (0) |
| CN(Cc1cc(=O)n2cccc(O)c2n1)Cc1ccccc1F | yes (1) |
| O=c1cc(CNCC2CCCCC2)nc2c(O)cccn12 | no (0) |
| CCCCCCCNC(=O)C1=CNC2C(O)=CC=CN2C1=O (stereo not shown) | yes (1) |

====

The entries below are paired with their reported Fe-ASC % (cf. 0.4 uM Fe/Asc; cf. CQ, CQ = 100%).
# Procedure summary: Hydrogen peroxide (H2O2) inhibition assay (fluorescence, DCF/horseradish peroxidase)
# Format: biochemical
# Applied conditions: ascorbic acid as reducing substrate; test compound 0.4 μM; lower values = greater inhibition of H2O2
Attribute measured: Fe-ASC % (cf. 0.4 uM Fe/Asc; cf. CQ, CQ = 100%) (% ASC)

| Smiles representation | Value comparator | Measured |
| --- | --- | --- |
| O=c1cc(CNC2CCCCC2)nc2c(O)cccn12 | = | 122 |
| CN(Cc1ccc(F)cc1)Cc1cc(=O)n2cccc(O)c2n1 | = | 147 |
| C#CCN(C)Cc1cc(=O)n2c(C)ccc(O)c2n1 | > | 222 |
| Cc1ccc(O)c2nc(CN(C)Cc3cccc(F)c3)cc(=O)n12 | = | 105 |
| CN(Cc1cc(=O)n2cccc(O)c2n1)Cc1ccccc1F | = | 102 |
| O=c1cc(CNC2CCCC2)nc2c(O)cccn12 | = | 133 |
| CC1CCN(Cc2cc(=O)n3cccc(O)c3n2)CC1 | = | 161 |
| O=C(NCc1ccc(Cl)cc1Cl)c1cnc2c(O)cccn2c1=O | = | 60 |
| CN(Cc1cccc(F)c1)Cc1cc(=O)n2cccc(O)c2n1 | = | 105 |
| CCN(CC)Cc1cc(=O)n2cccc(O)c2n1 | = | 156 |
